Would you mind telling me the reported ΔTm at 10 µM of each entry?
subject of test: human PD-L1 protein (Homo sapiens)
Construct: purchased Acro Biosystems PD1-H5229
Sequence (Q9NZQ7 19-238 limits assumed): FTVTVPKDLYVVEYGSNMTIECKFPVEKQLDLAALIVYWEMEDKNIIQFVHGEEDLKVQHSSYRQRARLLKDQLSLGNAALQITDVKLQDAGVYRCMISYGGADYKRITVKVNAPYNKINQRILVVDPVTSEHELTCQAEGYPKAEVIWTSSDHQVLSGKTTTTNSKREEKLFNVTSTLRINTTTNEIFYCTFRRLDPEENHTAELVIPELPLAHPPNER
experiment description: Thermal shift: melting temperature of PD-L1 protein
Assay type: binding
test context: read-out: ΔTm (° C.)
Answers are plain numbers, in °C.

Answered examples (5):
| test smiles | property measured | assay value |
| --- | --- | --- |
| COc1nc(-c2cccc(-c3cccc(NC(=O)c4nc5c(n4C)CCN(C)C5)c3Cl)c2Cl)ccc1CN1CC(C)(O)C1 | ΔTm at 10 µM | 18.1 |
| COc1nc(-c2cccc(-c3cccc(NC(=O)c4nc5c(n4C)CCN(C)C5)c3Cl)c2Cl)ccc1CN1CC(F)C1 | ΔTm at 10 µM | 15.8 |
| COc1nc(-c2cccc(-c3cccc(NC(=O)c4nc5c(n4C)CCN(C)C5)c3Cl)c2Cl)ccc1CN1CC(O)C1 | ΔTm at 10 µM | 13.9 |
| COc1nc(-c2cccc(-c3cccc(NC(=O)c4nc5c(n4C)CCN(C)C5)c3Cl)c2Cl)ccc1CN1CC[C@H]1CO | ΔTm at 10 µM | 13.9 |
| COc1nc(-c2cccc(-c3cccc(NC(=O)c4nc5c(n4C)CCN(C)C5)c3Cl)c2Cl)ccc1CN1CC2(CCCO2)C1 | ΔTm at 10 µM | 15.6 |

Give one value of ΔTm at 10 µM per listed molecule.
1. COc1nc(-c2cccc(-c3cccc(NC(=O)c4nc5c(n4C)CCN(C)C5)c3Cl)c2Cl)ccc1CN1CC2(C1)CN(C(C)=O)C2
2. COc1nc(-c2cccc(-c3cccc(NC(=O)c4nc5c(n4C)CCN(C)C5)c3Cl)c2Cl)ccc1CN1CC[C@H]1C(=O)O
3. CCC(=O)N1CC2(CN(Cc3ccc(-c4cccc(-c5cccc(NC(=O)c6nc7c(n6C)CCN(C)C7)c5Cl)c4Cl)nc3OC)C2)C1
4. COc1nc(-c2cccc(-c3cccc(NC(=O)c4nc5c(n4C)CCN(C)C5)c3Cl)c2Cl)ccc1CN[C@@H]1CCOC[C@@H]1F

**Result**
1. 16.5
2. 10.3
3. 16.5
4. 12.7

====

System: MC38-hPDL1 cells
experiment description: In vitro cytotoxicity on MC38-hPDL1 cells (CellTiter-Glo)
Assay type: cell-based, mouse
test context: 72 hours
property measured: MC38-hPDL1 inhibition rate (%)
Give bare numbers, in %.

The following compounds have reported results that may help.
| test smiles | MC38-hPDL1 inhibition rate (%) |
| --- | --- |
| COc1nc(-c2cccc(-c3cccc(NC(=O)c4nc5c(n4C)CCN(C)C5)c3Cl)c2Cl)cnc1CN1CC(F)C1 | 67 |
| COc1cc(-c2cccc(-c3cccc(NC(=O)c4nc5c(n4C)CCN(C)C5)c3Cl)c2Cl)ccc1CNCC(=O)O | 5 |
| COc1cc(C(=O)Nc2cccc(-c3cccc(NC(=O)c4nc5c(n4C)CCN(C)C5)c3Cl)c2C)ncc1CN[C@@H]1CCOC[C@@H]1F | 4.0 |

Hey, can you go through the list below and give me MC38-hPDL1 inhibition rate (%) for every item?
1. COc1nc(-c2cccc(-c3cccc(NC(=O)c4nc5c(n4C)CCN(C)C5)c3Cl)c2Cl)ncc1CN1CC(CO)C1
2. COc1nc(-c2cccc(-c3cccc(NC(=O)c4nc5c(n4C)CCN(C)C5)c3Cl)c2Cl)ncc1CN1CC(NC(C)=O)C1
3. COc1nc(-c2cccc(-c3cccc(NC(=O)c4nc5c(n4C)CCN(C)C5)c3Cl)c2Cl)cnc1CN1CC(NC(C)=O)C1
4. COc1cc(C(=O)Nc2cccc(-c3cccc(NC(=O)c4nc5c(n4C)CCN(C)C5)c3Cl)c2C)ncc1CNc1ccnc(C)n1

**Result**
2
1
51
6.8
